Tested on: SNB-19 CNS
ASSAY TEXT: NCI-60 one-dose screen, 48 h
CONDITION PARAMETERS: 10 µM unless noted
This is part of a sample that, as a whole, favours compounds with a hit. Of some 83,000 tested, about 20% had one in any assay. Active and inactive are the calls of the source. How the source made its calls: active means growth percent below 10; inactive means the rest.
Please reply with one of these outcomes: active, inactive

| COMPOUND | CATEGORY LABEL |
| --- | --- |
| CCOc1ccccc1[C@H]1C(C(=O)c2ccc(Cl)cc2)C2(N[C@@H]1c1ccccc1)C(=O)Nc1ccccc12 (stereo partly specified) | inactive |
| O=C(Cc1c(-c2cccc([N+](=O)[O-])c2)n(-c2ncnc3c2c(-c2ccccc2)c(-c2ccccc2)n3Cc2ccccc2)[nH]c1=O)c1ccc(Cl)c(Cl)c1 | inactive |
| O=C(CSc1nc2ccccc2c(=O)[nH]1)Nc1ccccc1C(=O)O | inactive |
| COc1cc(CNC(=O)[C@]23CCC(C)(C)CC2C2=CCC4[C@@]5(C)CCC(OC(C)=O)C(C)(C)C5CC[C@@]4(C)[C@]2(C)CC3)ccc1OCc1cn(-c2ccc(Cl)cc2Cl)nn1 (stereo partly specified) | inactive |
| CCOC(=O)c1ccc(NC(=S)NC(=O)c2ccc(NC(=O)C(C)C)cc2OC)cc1 | inactive |

Exercise: Field: outcome | Entry: Cc1ccc(C(=O)Nc2cc(-c3ccccc3)cc(C(F)(F)F)c2)cc1C#Cc1cnc2cccnn12
Solution: inactive

Exercise: Assay outcome for O=C(Nc1ccc(F)cc1)Nc1nc2ccc([N+](=O)[O-])cc2s1 : what was it?
Solution: inactive

Exercise: // param item: COc1ccccc1NC(=O)N/N=C/c1c[nH]c2ccccc12 ; yields the recorded call
Solution: inactive

Exercise: Dear all, I need the recorded test outcome for Cc1cc(C(NC(=O)CCCCCNc2cccc3c2C(=O)N(C2CCC(=O)CC2=O)C3=O)c2cccc(N(C)C)c2)c(O)c2ncccc12 (stereo unspecified) , thank you.
Solution: inactive

Exercise: In this assay, the call recorded for Cn1cc(Nc2ncnc(-c3ccc(N4CCCC4)c(C#N)c3)n2)cn1 was what?
Solution: inactive

Exercise: For c1n[nH]cc1-c1nc2ccc3cn[nH]c3c2c2c1CCCC2 , which call appears in the assay record?
Solution: inactive

Exercise: Each compound tested received a call. Report the one for N#Cc1c(-c2ccc(F)cc2)nc(SCc2ccc(F)cc2)nc1N1CCNCC1 .
Solution: inactive

Exercise: Recorded test call requested for COc1c2c(c(Br)c3c1C(CCc1ccccc1)N(C)CC3)OCO2 (stereo unspecified)
Solution: inactive

Exercise: For COc1ccc(-c2nc3ccc(-c4nnc(SCc5ccccc5)o4)cc3[nH]2)cc1 , what call appears in the results of this test?
Solution: active

Exercise: Look up the recorded call for COC(=O)c1ccc(-c2c(-c3ccccc3)c(F)c3oc(C(=O)OC)c(N)c3c2-c2ccccc2)cc1 in this test.
Solution: inactive
